- Study target: UniProtKB Q12852
- Test details: DLK TR-FRET Inhibition Assay
- Measurement conditions: N-terminally GST-tagged DLK (catalytic domain amino acid 1-520), MKK4 K131M substrate, 30 μM ATP; read-out: DLK HTRF Ki
pKi: −log10 of the molar value.
Result type: pKi

>  <Compound>
CC1(C)OCCn2c1nc1c(C3CC3)nc(-c3cnc(N)nc3)cc12

>  <Result type>
pKi

>  <Observed value>
6.44

$$$$
>  <Compound>
CC1(C)OCCn2c1nc1c(N3CCC4(COC4)C3)nc(-c3cnc(N)c(C(F)(F)F)c3)nc12

>  <Result type>
pKi

>  <Observed value>
6.57

$$$$

A = COC1CN(c2nc(-c3cnc(N)c(OC(F)F)c3)nc3c2nc2n3CCOC2(C)C)C1
B = C[C@H]1OCCn2c1nc1c(N3CC4CC3C4)nc(-c3cnc(N)nc3)nc12 (single isomer, unassigned)
C = Cc1c[nH]c2ncc(-c3nc(N4CCC(F)(F)C4)c4nc5n(c4n3)CCOC5(C)C)cc12
[ask] # rank by pKi, ascending (min first) Sort the labels as requested; that list is your answer.
[reply] B, A, C

1 = CC(C)c1c[nH]c2ncc(-c3nc(N4CCC(F)(F)C4)c4nc5n(c4n3)CCOC5(C)C)cc12
2 = CC1(C)OCCn2c1nc1c(N3CCCC34CCOC4)nc(-c3cnc(N)nc3)nc12 (centres unmarked)
[ask] # return whichever of 1 and 2 has the smaller pKi Answer by stating the label of the chosen item.
[reply] 2
(2: 6.49, 1: 6.95)

* * *

- Study target: DLK (Homo sapiens (Human), UniProt Q12852)
- Sequence (Q12852 1-520): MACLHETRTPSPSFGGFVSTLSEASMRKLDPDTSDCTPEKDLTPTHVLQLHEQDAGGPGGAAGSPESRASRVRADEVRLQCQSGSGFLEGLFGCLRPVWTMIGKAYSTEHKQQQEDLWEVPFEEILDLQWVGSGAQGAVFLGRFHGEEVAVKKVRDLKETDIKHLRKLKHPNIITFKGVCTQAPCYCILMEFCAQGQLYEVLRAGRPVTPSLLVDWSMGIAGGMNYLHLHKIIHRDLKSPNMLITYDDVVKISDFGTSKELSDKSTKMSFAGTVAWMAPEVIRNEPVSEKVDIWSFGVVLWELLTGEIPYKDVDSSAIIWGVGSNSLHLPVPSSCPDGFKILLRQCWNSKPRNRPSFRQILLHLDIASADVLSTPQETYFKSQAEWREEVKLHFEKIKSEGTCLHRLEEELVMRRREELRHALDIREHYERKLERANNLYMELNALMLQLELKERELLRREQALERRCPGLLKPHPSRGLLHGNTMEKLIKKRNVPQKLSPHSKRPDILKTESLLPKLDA
- Test details: DLK TR-FRET Inhibition Assay
- Measurement conditions: N-terminally GST-tagged DLK (catalytic domain amino acid 1-520), MKK4 K131M substrate, 30 μM ATP; read-out: DLK HTRF Ki
pKi: −log10 of the molar value.
Result type: pKi

These solved cases illustrate the format of a correct answer.
>  <Compound>
CC(C)Oc1cc(-c2nc(N3CC4CC3C4)c3nc4n(c3n2)CCOC4(C)C)cnc1N

>  <Study target>
DLK (Homo sapiens (Human), UniProt Q12852)

>  <pKi>
6.39

$$$$
>  <Compound>
CC(C)Oc1nc(-c2cnc(N)nc2)nc2c1nc1n2CCOC1(C)C

>  <Study target>
DLK (Homo sapiens (Human), UniProt Q12852)

>  <pKi>
6.24

$$$$
>  <Compound>
CC1(C)OCCn2c1nc1c(N3C[C@@H]4CC(F)(F)C[C@@H]4C3)nc(-c3cnc(N)nc3)nc12

>  <Study target>
DLK (Homo sapiens (Human), UniProt Q12852)

>  <pKi>
6.14

$$$$

I = CC1(C)OCCn2c1nc1c(NC3CCC3)nc(-c3cnc(N)nc3)nc12
II = CC1(C)OCCn2c1nc1c(N3CC4(COC4)C3)nc(-c3cnc(N)nc3)nc12
[ask] I need your help: which of the pair I , II has higher pKi? Answer format: the label of the selected item.
[reply] I

a = COc1cc(-c2nc(N3CCC(F)(F)C3)c3nc4n(c3n2)CCOC4(C)C)cnc1N
b = CC1(C)OCCn2c1nc1c(N3CC4CC3C4)nc(-c3cnc(N)cn3)cc12
c = Cc1c[nH]c2ncc(-c3nc(N4CC(F)C4)c4nc5n(c4n3)CCOC5(C)C)cc12
d = CCN(c1nc(-c2cnc(N)nc2)nc2c1nc1n2CCOC1(C)C)C1CC1 [Example 117]
[ask] Let's sort these by pKi, smallest first. Go ahead? # answer = labels listed in requested order
[reply] b, a, c, d
(b: 5.92, a: 6.53, c: 8.01, d: 9.41)

I = CC1(C)OCCn2c1nc1c(N3CC4CC3C4)nc(-c3cnc(N)nc3)cc12
II = Nc1ncc(-c2nc(N3CC4CC3C4)c3nc4n(c3n2)CCOCC4)cn1
III = CC(C)N(c1nc(-c2cnc(N)nc2)nc2c1nc1n2CCOC1(C)C)C1CCC1
IV = COC1CN(c2nc(-c3cnc4[nH]cc(C(F)(F)F)c4c3)nc3c2nc2n3CCOCC2)C1
[ask] Sequence the entries by pKi, beginning with the highest number. // ordering of labels required in reply
[reply] I, IV, III, II

1 = CC1(C)OCCn2c1nc1c(N3CC4(CCC4)C3)nc(-c3cnc(N)nc3)nc12
2 = C[C@@H]1Cn2c(nc3c(N4CC5CC4C5)nc(-c4cnc(N)nc4)nc32)C(C)(C)O1 (single isomer, unassigned)
[ask] // returns 1 or 2 , whichever has the lower pKi When you have decided, please share the label of that item.
[reply] 1
